Target: Human recombinant DHX9 protein (Homo sapiens (Human), UniProt Q08211)
Sequence (Q08211 whole entry): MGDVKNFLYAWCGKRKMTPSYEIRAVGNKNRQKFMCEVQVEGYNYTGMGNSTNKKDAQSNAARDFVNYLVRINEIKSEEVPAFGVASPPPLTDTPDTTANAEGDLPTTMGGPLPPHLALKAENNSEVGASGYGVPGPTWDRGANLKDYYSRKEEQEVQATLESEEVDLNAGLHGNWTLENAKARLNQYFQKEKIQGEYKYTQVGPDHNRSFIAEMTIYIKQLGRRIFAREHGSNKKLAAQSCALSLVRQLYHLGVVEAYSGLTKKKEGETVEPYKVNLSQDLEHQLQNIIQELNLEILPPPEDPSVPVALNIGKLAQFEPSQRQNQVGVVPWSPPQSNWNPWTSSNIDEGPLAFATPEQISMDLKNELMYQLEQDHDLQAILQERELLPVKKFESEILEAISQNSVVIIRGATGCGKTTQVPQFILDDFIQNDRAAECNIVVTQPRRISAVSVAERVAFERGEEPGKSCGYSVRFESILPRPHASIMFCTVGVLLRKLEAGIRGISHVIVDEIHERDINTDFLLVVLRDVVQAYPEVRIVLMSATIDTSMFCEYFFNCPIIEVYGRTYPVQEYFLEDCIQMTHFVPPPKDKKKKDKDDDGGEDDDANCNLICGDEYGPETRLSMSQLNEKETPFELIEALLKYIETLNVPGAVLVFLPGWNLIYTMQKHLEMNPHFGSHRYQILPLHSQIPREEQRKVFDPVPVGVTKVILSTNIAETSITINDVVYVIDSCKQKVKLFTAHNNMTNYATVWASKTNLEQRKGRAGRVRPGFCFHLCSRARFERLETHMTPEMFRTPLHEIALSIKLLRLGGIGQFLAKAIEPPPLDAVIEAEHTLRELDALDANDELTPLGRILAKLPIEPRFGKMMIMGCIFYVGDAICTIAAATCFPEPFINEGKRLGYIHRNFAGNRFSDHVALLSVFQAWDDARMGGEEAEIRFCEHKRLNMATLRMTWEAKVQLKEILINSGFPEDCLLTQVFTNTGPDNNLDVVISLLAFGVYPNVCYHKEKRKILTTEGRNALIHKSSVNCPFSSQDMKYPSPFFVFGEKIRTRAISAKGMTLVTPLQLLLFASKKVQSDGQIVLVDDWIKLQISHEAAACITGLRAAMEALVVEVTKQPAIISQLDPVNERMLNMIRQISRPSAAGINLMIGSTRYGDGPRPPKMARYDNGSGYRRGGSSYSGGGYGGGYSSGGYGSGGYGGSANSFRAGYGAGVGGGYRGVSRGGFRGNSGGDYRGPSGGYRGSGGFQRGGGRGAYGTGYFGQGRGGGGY
Assay: DHX9 ATPase assay (ADP-Glo)
Format: biochemical
propertyLabel: DHX9 Biochemical Max Inhibition (%)

CS(=O)(=O)Nc1cc(Cl)cc(NC(=O)c2cc(-c3ccccc3)c[nH]2)c1 : 54.4

1: CCn1cc(C(=O)Nc2cc(Cl)cc(NS(C)(=O)=O)c2)cc1-c1ccc(N2CCOCC2)cn1
2: Cc1cccnc1-c1csc(C(=O)Nc2cc(Cl)cc(NS(=O)(=O)C(C)C)c2)c1
Which entry has a larger number for DHX9 Biochemical Max Inhibition, 1 or 2 ? # respond with the chosen item's label 1

* * *

Molecular target: Human recombinant DHX9 protein (Homo sapiens (Human), UniProt Q08211)
Experiment: DHX9 ATPase assay (ADP-Glo)
Conditions: read-out: DHX9 Biochemical Inflection Point
pIC50: −log10 of the molar value.
propertyLabel: pIC50

Please review the following examples before continuing.
CS(=O)(=O)Nc1cc(Cl)cc(NC(=O)c2cn(-c3ccccc3)cn2)c1 [Example 1] : 6.49
Cc1cc(C(=O)Nc2cc(Cl)cc(NS(C)(=O)=O)c2)cn1-c1ccc(C#N)cn1 [Example 425] : 7.26
CN1CC[C@@H](Oc2cnc(-c3cc(C(=O)Nc4cc(Cl)cc(NS(C)(=O)=O)c4)cn3C)c(F)c2)C1 [Example 640] : 8.15

1: CS(=O)(=O)Nc1cc(Cl)cc(NC(=O)c2cnn(CCc3ccccc3)c2)c1 [Example 308]
2: Cc1sc(C(=O)Nc2cc(Cl)cc(NS(C)(=O)=O)c2)cc1-c1ncc(P(C)(C)=O)cn1 [Example 648]
3: Cc1sc(C(=O)Nc2cc(Cl)cc(NS(C)(=O)=O)c2)cc1-c1ncccc1OC(C)c1cc(F)cc(F)c1 (single isomer, unassigned) [Example 633]
4: CCOc1cnc(-c2cc(C(=O)Nc3cc(Cl)cc(NS(=O)(=O)CC)c3)sc2C)nc1 [Example 365]
Thanks in advance: please rank these 4 entries by pIC50, highest to lowest. The reply should contain the labels ordered as requested. 2, 4, 3, 1
(2: 8.16, 4: 7.69, 3: 7.28, 1: 6.43)
